Data provenance is ChEMBL document CHEMBL3124903.

system: Aspergillus flavus; assay: Antifungal activity against Aspergillus flavus assessed as growth inhibition by NCCLS broth dilution assay; format: functional
// reported MIC for each item listed
State the answer as a number, implicitly in µg/mL.

Past entries and their recorded results:
{"GIVEN_SMILES": "COc1ccc(-c2nnc3sc(-c4[se]c5ncnc(Nc6ccc(Cl)cc6)c5c4C)nn23)cc1", "MIC (µg/mL)": 6.25}
{"GIVEN_SMILES": "Cc1c(-c2nn3c(-c4ccccc4)nnc3s2)[se]c2ncnc(Nc3ccc(F)c(Cl)c3)c12", "MIC (µg/mL)": 50}
{"GIVEN_SMILES": "Cc1ccc(-c2nnc3sc(-c4[se]c5ncnc(Nc6ccc(Cl)cc6)c5c4C)nn23)cc1", "MIC (µg/mL)": 50}
{"GIVEN_SMILES": "COc1ccc(-c2nnc3sc(-c4[se]c5ncnc(Nc6ccc(F)c(Cl)c6)c5c4C)nn23)cc1", "MIC (µg/mL)": 3.12}
{"GIVEN_SMILES": "Cc1c(-c2nn3c(-c4ccc(O)cc4)nnc3s2)[se]c2ncnc(Nc3ccc(Cl)cc3)c12", "MIC (µg/mL)": 3.12}

MIC reading for Cc1c(-c2nn3c(-c4ccc(O)cc4)nnc3s2)[se]c2ncnc(Nc3ccc(F)c(Cl)c3)c12 : 1.56

# compound Cc1c(-c2nn3c(-c4ccccc4)nnc3s2)[se]c2ncnc(Nc3ccc(Cl)cc3)c12 ; its MIC = 50

get_value(item= Cc1ccc(-c2nnc3sc(-c4[se]c5ncnc(Nc6ccc(F)c(Cl)c6)c5c4C)nn23)cc1 , readout=MIC) returns 12.5

// field: MIC; key: OC(Cn1cncn1)(Cn1cncn1)c1ccc(F)cc1F ; value = 3.12
